tested on: NCI-H226 lung; experiment: NCI-60 one-dose screen, 48 h (100 = growth as untreated, 0 = no growth, -100 = all killed); conditions: 10 µM unless noted
Compounds without any hit were thinned out: in the full panel of roughly 83,000, 20% have a hit.
growth strictly under 50% means TRUE; at 50% or over means FALSE.

Take a look at these entries with their results.
{"columns": ["Molecule", "Answer Label"],
 "data": [
  ["CN1CCN(/C(=N\\c2sc(-c3ccccc3)nc2-c2ccccc2)c2ccccc2)CC1", "FALSE"],
  ["CC(C)CCNC(=O)N/C(N)=N/c1nc2ccccc2s1", "FALSE"],
  ["CC12CC[C@@H]3[C@]4(C)COC(c5cn[nH]c5-c5ccc(Cl)cc5)O[C@@H]4CC[C@@]3(C)[C@@H]1CC(C1=CCOC1=O)O2 (stereo not given in full)", "TRUE"],
  ["COc1ccc(C(=O)/C=C/c2ccccc2Br)cc1S(N)(=O)=O", "TRUE"]
]}

Now take the following molecule into account.
Please determine if Cc1cc2nc3c4ccccc4n(CC4=NCCN4)c3nc2cc1C is below 50% in terms of growth.
TRUE
